Assay: Enhancement of bioavailability of drugs given to rats with bioenhancers (plasma drug level by HPLC)
Details: drug with Carum carvi bioenhancer and piperine 8 mg/kg, drug dose as in row
Cut-off 80% on % Enhancement in bioavailability, Carum carvi + Piperine, inclusive. At or above means Satisfied; below means Not satisfied.

| Molecule | Group |
| --- | --- |
| CC1(C)S[C@@H]2[C@H](NC(=O)[C@H](N)c3ccc(O)cc3)C(=O)N2[C@H]1C(=O)O | Satisfied |
| CC(=O)N1CCN(c2ccc(OCC3COC(Cn4ccnc4)(c4ccc(Cl)cc4Cl)O3)cc2)CC1 (stereo not drawn) | Satisfied |
| CS(=O)(=O)c1ccc(C2=C(c3ccccc3)C(=O)OC2)cc1 | Not satisfied |
| Cc1cn([C@H]2C[C@H](N=[N+]=[N-])[C@@H](CO)O2)c(=O)[nH]c1=O | Satisfied |
| CC(C)NCC(O)COc1cccc2ccccc12 (stereo not drawn) | Satisfied |
| C[C@@H]1[C@H](O)[C@@H](C)/C=C/C=C/C=C/C=C/C=C/C=C/C=C/[C@H](O[C@@H]2O[C@H](C)[C@@H](O)[C@H](N)[C@@H]2O)C[C@@H]2O[C@](O)(C[C@@H](O)C[C@@H](O)[C@H](O)CC[C@@H](O)C[C@@H](O)CC(=O)O[C@H]1C)C[C@H](O)[C@H]2C(=O)O | Satisfied |
| C=CC1=C(C(=O)O)N2C(=O)[C@@H](NC(=O)/C(=N\O)c3csc(N)n3)[C@H]2SC1 | Satisfied |
| CN(Cc1cc(Br)cc(Br)c1N)C1CCCCC1 | Not satisfied |
| NCCCC[C@H](N[C@@H](CCc1ccccc1)C(=O)O)C(=O)N1CCC[C@H]1C(=O)O | Satisfied |
| COc1cccc2c1C(=O)c1c(O)c3c(c(O)c1C2=O)C[C@@](O)(C(=O)CO)C[C@@H]3O[C@H]1C[C@H](N)[C@H](O)[C@H](C)O1 | Not satisfied |
| CS(=O)(=O)Nc1ccc([N+](=O)[O-])cc1Oc1ccccc1 [Nimesulide] | Satisfied |
| CO[C@H]1/C=C/O[C@@]2(C)Oc3c(C)c(O)c4c(O)c(c(/C=N/N5CCN(C)CC5)c(O)c4c3C2=O)NC(=O)/C(C)=C\C=C\[C@H](C)[C@H](O)[C@@H](C)[C@@H](O)[C@@H](C)[C@H](OC(C)=O)[C@@H]1C | Satisfied |

====

Assay: Enhancement of bioavailability of drugs given to rats with bioenhancers (plasma drug level by HPLC)
Details: drug with Carum carvi bioenhancer (aqueous or 50% alcoholic extract 30 mg/kg or Fraction No. 1 15 mg/kg), drug dose mg/kg
Below is a list of entries, each paired with its recorded % Enhancement in bioavailability, BE from Carum carvi value.
Readout: % Enhancement in bioavailability, BE from Carum carvi (%)

| Compound | Reported measurement |
| --- | --- |
| CS(=O)(=O)Nc1ccc([N+](=O)[O-])cc1Oc1ccccc1 [Nimesulide] | 100 |
| C=CC1=C(C(=O)O)N2C(=O)[C@@H](NC(=O)/C(=N\O)c3csc(N)n3)[C@H]2SC1 | 89 |
| CN/C(=N/CCSCc1nc[nH]c1C)NC#N | 72 |
| Nc1ccc(S(=O)(=O)c2ccc(N)cc2)cc1 | 56 |
| Cc1cn([C@H]2C[C@H](N=[N+]=[N-])[C@@H](CO)O2)c(=O)[nH]c1=O | 92 |
| CS(=O)(=O)c1ccc(C2=C(c3ccccc3)C(=O)OC2)cc1 | 75 |
| Cn1c(=O)c2[nH]cnc2n(C)c1=O | 70 |

====

Settings: rat, in vivo, 30 mg/kg
Readout: % Enhancement in bioavailability, Carum carvi (Cc) Extr. (%)

| Molecular string | Reported measurement |
| --- | --- |
| CC(C)C[C@H](N)C(=O)O | 19 |
| NCCCC[C@H](N)C(=O)O | 26 |
| CC[C@H](C)[C@H](N)C(=O)O | 28 |
| CC(C)[C@H](N)C(=O)O | 16 |
| C[C@@H]1O[C@@H](OC[C@H]2O[C@@H](Oc3c(-c4ccc(O)c(O)c4)oc4cc(O)cc(O)c4c3=O)[C@H](O)[C@@H](O)[C@@H]2O)[C@H](O)[C@H](O)[C@H]1O | 34 |
| COc1cc(/C=C/C(=O)CC(=O)/C=C/c2ccc(O)c(OC)c2)ccc1O | 40 |

====

Catalogue of % Enhancement in bioavailability, BE from Carum carvi values
Test: Enhancement of bioavailability of drugs given to rats with bioenhancers (plasma drug level by HPLC)
Settings: drug with Carum carvi bioenhancer (aqueous or 50% alcoholic extract 30 mg/kg or Fraction No. 1 15 mg/kg), drug dose mg/kg
Readout: % Enhancement in bioavailability, BE from Carum carvi (%)

| Compound | Readout unit | Reported measurement |
| --- | --- | --- |
| CO[C@H]1/C=C/O[C@@]2(C)Oc3c(C)c(O)c4c(O)c(c(/C=N/N5CCN(C)CC5)c(O)c4c3C2=O)NC(=O)/C(C)=C\C=C\[C@H](C)[C@H](O)[C@@H](C)[C@@H](O)[C@@H](C)[C@H](OC(C)=O)[C@@H]1C | % | 110 |
| CO/N=C(\C(=O)N[C@@H]1C(=O)N2C(C(=O)O)=C(CSc3nc(=O)c(O)nn3C)CS[C@H]12)c1csc(N)n1 | % | 72 |
| CC(=O)N1CCN(c2ccc(OCC3COC(Cn4ccnc4)(c4ccc(Cl)cc4Cl)O3)cc2)CC1 (stereo not drawn) | % | 55 |

====

Test: Enhancement of bioavailability of drugs given to rats with bioenhancers (plasma drug level by HPLC)
Conditions: drug with Carum carvi bioenhancer and Zingiber officinale 35 mg/kg, drug dose as in row
Readout: % Enhancement in bioavailability, Carum carvi + Zingiber officinale (%)

| Compound | Reported measurement |
| --- | --- |
| CN/C(=N/CCSCc1nc[nH]c1C)NC#N | 100 |
| O=c1[nH]cc(F)c(=O)[nH]1 | 100 |
| CC(C)NCC(O)COc1cccc2ccccc12 (stereo not shown) | 75 |
| C[C@@H]1[C@H](O)[C@@H](C)/C=C/C=C/C=C/C=C/C=C/C=C/C=C/[C@H](O[C@@H]2O[C@H](C)[C@@H](O)[C@H](N)[C@@H]2O)C[C@@H]2O[C@](O)(C[C@@H](O)C[C@@H](O)[C@H](O)CC[C@@H](O)C[C@@H](O)CC(=O)O[C@H]1C)C[C@H](O)[C@H]2C(=O)O | 80 |
| CC1(C)S[C@@H]2[C@H](NC(=O)[C@H](N)c3ccc(O)cc3)C(=O)N2[C@H]1C(=O)O | 100 |
| CO/N=C(\C(=O)N[C@@H]1C(=O)N2C(C(=O)O)=C(CSc3nc(=O)c(O)nn3C)CS[C@H]12)c1csc(N)n1 | 75 |
| Cn1c(=O)c2[nH]cnc2n(C)c1=O | 89 |

====

Test: Enhancement of bioavailability of drugs given to rats with bioenhancers (plasma drug level by HPLC)
Settings: drug with piperine 8 mg/kg, drug dose as in row
Output schema: class label derived from % Enhancement in bioavailability, Piperine as BE. Mapping: low value: < 60%; medium value: ≥ 60% and < 80%; high value: ≥ 80%

| Compound | Group |
| --- | --- |
| CO[C@H]1/C=C/O[C@@]2(C)Oc3c(C)c(O)c4c(O)c(c(/C=N/N5CCN(C)CC5)c(O)c4c3C2=O)NC(=O)/C(C)=C\C=C\[C@H](C)[C@H](O)[C@@H](C)[C@@H](O)[C@@H](C)[C@H](OC(C)=O)[C@@H]1C | low value |
| CS(=O)(=O)Nc1ccc([N+](=O)[O-])cc1Oc1ccccc1 [Nimesulide] | high value |
| COc1cccc2c1C(=O)c1c(O)c3c(c(O)c1C2=O)C[C@@](O)(C(=O)CO)C[C@@H]3O[C@H]1C[C@H](N)[C@H](O)[C@H](C)O1 | medium value |
| O=c1[nH]cc(F)c(=O)[nH]1 | high value |
| CSCC[C@H](N)C(=O)O | low value |
| CC1(C)S[C@@H]2[C@H](NC(=O)[C@H](N)c3ccc(O)cc3)C(=O)N2[C@H]1C(=O)O | high value |
| Cn1c(=O)c2[nH]cnc2n(C)c1=O | medium value |
| CN(Cc1cnc2nc(N)nc(N)c2n1)c1ccc(C(=O)N[C@@H](CCC(=O)O)C(=O)O)cc1 [Methotrexate] | medium value |
| CCc1cc(C(N)=S)ccn1 [Ethionamide] | low value |
| CC(=O)N1CCN(c2ccc(OCC3COC(Cn4ccnc4)(c4ccc(Cl)cc4Cl)O3)cc2)CC1 (stereo not drawn) | high value |
| Cc1nnc2n1-c1ccc(Cl)cc1C(c1ccccc1)=NC2 | medium value |
| NCCCC[C@H](N[C@@H](CCc1ccccc1)C(=O)O)C(=O)N1CCC[C@H]1C(=O)O | high value |
| Cc1ncc(C[n+]2csc(CCO)c2C)c(N)n1 | low value |
| Cc1cn([C@H]2C[C@H](N=[N+]=[N-])[C@@H](CO)O2)c(=O)[nH]c1=O | high value |
| CN(Cc1cc(Br)cc(Br)c1N)C1CCCCC1 | medium value |
| CC(C)NCC(O)COc1cccc2ccccc12 (stereo not drawn) | high value |
| CC1=C(/C=C/C(C)=C/C=C/C(C)=C/C=C/C=C(C)/C=C/C=C(C)/C=C/C2=C(C)CCCC2(C)C)C(C)(C)CCC1 | low value |
| Nc1ccc(S(=O)(=O)c2ccc(N)cc2)cc1 | low value |

// provenance: patent US20080292736A1
